Origin of the recorded values: patent US5250283A

Each entry below carries its recorded dose excreted at 0.5 h.
Assay: Biliary excretion and bile flow after i.v. TFA-IOP (100 umol/kg) or IOP (100 in text, 104 umol/kg in tables) in rats
Conditions: rat, in vivo, iv, 100 umol/kg, Percentage of dose running total in bile, through 20-30 min
Counter-ions that a name gives are not always drawn.
Please respond with the number in % and leave the unit unwritten.

COMPOUND: CCC(Cc1c(I)cc(I)c(NC(=O)C(F)(F)F)c1I)C(=O)O (centres unmarked) [TFA-IOP, N-trifluoroacetyl-iopanoic acid]
dose excreted at 0.5 h [%]: 14

Continue with the compound presented below.
The recorded dose excreted at 0.5 h for CCC(Cc1c(I)cc(I)c(N)c1I)C(=O)O (centres unmarked) [IOP, iopanoic acid, reference compound] is 4.98

====

Assay: Biliary excretion and bile flow after i.v. TFA-IOP (100 umol/kg) or IOP (100 in text, 104 umol/kg in tables) in rats
Settings: rat, in vivo, iv, 100 umol/kg, Percentage of dose running total in bile, through 70-80 min
Counter-ions that a name gives are not always drawn.
Measured dose excreted at 80 min, listed per entry for reference.
The reply should be a number in %, with the unit left off.

COMPOUND: CCC(Cc1c(I)cc(I)c(NC(=O)C(F)(F)F)c1I)C(=O)O (centres unmarked) [TFA-IOP, N-trifluoroacetyl-iopanoic acid]
EXPERIMENTAL VALUE: 36.8

dose excreted at 80 min in this record for CCC(Cc1c(I)cc(I)c(N)c1I)C(=O)O (centres unmarked) [IOP, iopanoic acid, reference compound] : 15.3

====

Experiment: Biliary excretion and bile flow after i.v. TFA-IOP (100 umol/kg) or IOP (100 in text, 104 umol/kg in tables) in rats
Details: rat, bile, iv, 100 umol/kg
Counter-ions that a name gives are not always drawn.
QUANTITY MEASURED: concentration at 5 min
Quote the value and follow it with the unit of measurement.

COMPOUND: CCC(Cc1c(I)cc(I)c(NC(=O)C(F)(F)F)c1I)C(=O)O (centres unmarked) [TFA-IOP, N-trifluoroacetyl-iopanoic acid]
concentration at 5 min: 3010 µM

Next compound, please.
Reported concentration at 5 min ( CCC(Cc1c(I)cc(I)c(N)c1I)C(=O)O (centres unmarked) [IOP, iopanoic acid, reference compound] ) = 1610 µM

====

Assay: Plasma concentration after i.v. IOP or TFA-IOP in rats
Format: in vivo
Settings: plasma, iv, 100 umol/kg, rat, 80 min
Counter-ions that a name gives are not always drawn.
QUANTITY MEASURED: concentration at 80 min (µM)
State just the number; it will be interpreted in µM.

COMPOUND: CCC(Cc1c(I)cc(I)c(NC(=O)C(F)(F)F)c1I)C(=O)O (centres unmarked) [TFA-IOP, N-trifluoroacetyl-iopanoic acid]
RESULT UNIT: µM
concentration at 80 min: 403

Now for another entry.
Record CCC(Cc1c(I)cc(I)c(N)c1I)C(=O)O (centres unmarked) [IOP, iopanoic acid, reference compound] , field concentration at 80 min: 404

====

dose excreted at 0.5 h values for the molecules below.
Experiment: Biliary excretion and bile flow after i.v. TFA-IOP (100 umol/kg) or IOP (100 in text, 104 umol/kg in tables) in rats
Conditions: rat, in vivo, iv, 100 umol/kg, Percentage of dose in bile sample, 20-30 min
Experimental: Tissues examined included liver, spleen, upper GI, lower GI, kidney, lung and heart. The length of each study was 90 minutes, during which time bile, urine and plasma samples were taken to monitor uptake and excretion. NMR relaxation rates for liver and plasma were also examined to note whether uptake of either compound might possible alter these parameters.
Counter-ions that a name gives are not always drawn.
// units = %; emit number, no label

MOLECULE: CCC(Cc1c(I)cc(I)c(NC(=O)C(F)(F)F)c1I)C(=O)O (centres unmarked) [TFA-IOP, N-trifluoroacetyl-iopanoic acid]
dose excreted at 0.5 h / %: 5.99

The reported value for CCC(Cc1c(I)cc(I)c(N)c1I)C(=O)O (centres unmarked) [IOP, iopanoic acid, reference compound] in terms of dose excreted at 0.5 h is 2.68
